Entries and their inhibition values follow.
- experimental-details: inhibitors of E-selectin induction by TNFa, primary screen, imaging, HUVEC, immunofluorescence, MLSMR starter and 10KST1 sets (AID 487);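 further: signal is fraction of cell area covered by stained E-selectin grains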
- test-parameters: HUVEC TNFalpha-induced E-selectin immunofluorescence imaging, at 2 µM; stronger effect = higher value
# unit: % | format: bare number

These recorded examples may help you get a feel for the data.
compound	readout-unit	inhibition
CN1CCN(Cc2nc3c(c(=O)n(C)c(=O)n3C)n2Cc2ccccc2Cl)CC1	%	-14.4
CC(C)OC(=O)CSc1nc2cccnc2n1C1CCCCC1	%	-25.1
COc1cc(S(=O)(=O)n2nnc3ccccc32)c(OC)cc1Cl	%	-51.9
CCSc1cc(C2C(C(=O)OC)=C(C)NC3=C2C(=O)CCC3)c(C)o1 (stereo unspecified)	%	-52.7

Could you now consider this next compound?
Reported inhibition of Cc1cc(C)nc(SCC(=O)Nc2ncc3c(n2)CCCC3=O)n1 : -9.1

---

- experimental-details: inhibitors of mutant huntingtin aggregation, primary screen, imaging, exon1htt(103Q)mCFP cells, high-content imaging (AID 483);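 further: compound exposure lasted 3 days before fixation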
- test-parameters: exon1htt(103Q)mCFP cell line, aggregate imaging, at 2 µM; stronger effect = higher value
Threshold rule: inhibition of aggregation greater than or equal to -10% is true; below that, false.

// below: answered compounds
compound	qualitative-label
O=C(NCCCN1CCOCC1)c1ccc(CS(=O)(=O)c2c(Cl)cccc2Cl)o1	false
O=C(NC1CCCCC1)c1cc2nc(-c3ccco3)cc(C(F)(F)F)n2n1	true
COC(=O)c1cc(-c2c(C)oc3cc(O)ccc3c2=O)c(C)o1	false
CC(=O)C1=C(C)NC(=O)NC1c1cccc(O)c1 (stereo unspecified)	true

Now turn to the next compound.
INPUT: Answer whether inhibition of aggregation of Cc1noc(C)c1C(=O)Nc1ccc(Cl)cc1C(F)(F)F is greater than or equal to -10%.
OUTPUT: true

---

- experimental-details: inhibitors of TNFa-induced NFkB p65 translocation, primary screen, imaging, HUVEC, MLSMR starter and 10KST1 sets (AID 438);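 further: compound added about 3h40 before a 20 min TNFalpha stimulation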
- test-parameters: HUVEC TNFa-induced p65 nuclear translocation; measured here: nuclei count (cytotoxicity indicator), at 2.08 µM
quantity-kind: cell count
Answer using only a numeral; do not append any unit.

compound	cell count
O=C(NCc1ccco1)c1cc2cc3ccc(Cl)cc3nc2o1	198
O=C(C(c1ccccc1)N1CCOCC1)N1CCOCC1 (configuration not stated)	733
CN1CCc2nc(SCCOc3ccccc3)c(C#N)cc2C1	319
c1ccc(-c2ccc(-c3ccccn3)nn2)nc1	231

Reported cell count of COc1cc(OC)cc(-c2nnc(SCC(=O)Nc3cc(C)on3)o2)c1 : 230

Reported cell count of O=C(Cc1ccc(Cl)cc1)Nc1cccc(-c2nnc(-c3ccco3)o2)c1 : 695

Reported cell count of Cc1occc1C(=O)Nc1nnc(C2CCCCC2)s1 : 356

Reported cell count of CCOC(=O)N1CCN(C2OC(=O)c3ccccc32)CC1 (configuration not stated) : 380

Reported cell count of CCCCSCCCNC(=O)CS(=O)Cc1nc(-c2cccc(C)c2)oc1C (configuration not stated) : 527

Reported cell count of COCCN(C(=O)c1csnn1)C(C(=O)NC(C)(C)C)c1cccc(OC)c1 (configuration not stated) : 684

Reported cell count of CC(NC(=O)C1CCCN(S(=O)(=O)c2cccs2)C1)c1ccccc1 (configuration not stated) : 816

Reported cell count of O=C(COc1ccc(F)cc1)OCCN1CCOCC1 : 565

---

- experimental-details: inhibitors of TNFa-induced NFkB p65 translocation, primary screen, imaging, HUVEC, MLSMR starter and 10KST1 sets (AID 438);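 further: compound added about 3h40 before a 20 min TNFalpha stimulation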;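 on inhibition: signal is the nuclear over cytoplasmic p65 intensity ratio per well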
- test-parameters: HUVEC TNFa-induced p65 nuclear translocation; at 2 µM, stronger effect = higher value, 0% TNFa-plus-vehicle, 100% no-TNFa wells
quantity-kind: inhibition (%)
# unit: % | format: bare number

These recorded examples may help you get a feel for the data.
molecule	assay-result
CCN(C(=O)c1cn(C)c(=O)c2cc(OC)c(OC)cc12)c1ccccc1C	0.3
O=C(CSc1nnc(-c2ccccc2)o1)N1CCN(c2ccccc2)CC1	12.5
COC(=O)c1ccc(Cn2c(O)c(N=O)c3ccccc32)o1	2
COCCOC(=O)c1[nH]c2c(c1C)C(=O)CC(c1ccco1)C2 (stereo unspecified)	12.1
CC(C)N(C(=O)CSc1nnc(-c2cc3ccccc3cc2O)n1Cc1ccco1)C(C)C	6.2
CCOC(=O)C(C)(C)Sc1nc2c(cnn2-c2ccc(Cl)cc2)c(=O)[nH]1	-5.2
COc1ccc(C2C(C(=O)Nc3cccnc3)=C(C)Nc3nc(-c4cccs4)nn32)cc1OC (stereo unspecified)	5.1
CNC(=O)CN(c1ccc(C(C)C)cc1)S(C)(=O)=O	-0.8
CCOc1ccc(C2CC(=O)NC3=C2C(=O)CCC3)cc1Cl (stereo unspecified)	10
O=S1(=O)C=C(Oc2ccc(F)cc2)c2ccccc21	-2.7

Could you now consider this next molecule?
Reported inhibition of COC(=O)Oc1c(Br)c(=O)oc2ccccc12 : 7.7

---

Entries and their inhibition values follow.
- experimental-details: inhibitors of poly I:C-induced TLR3 signaling, primary screen, cell-based, poly I:C stimulus, luciferase, 10K MLSCN set (AID 602277)
- test-parameters: HEK293-TLR3 RL24 IRF3 luciferase reporter, at 10 µM, stronger effect = higher value
# unit: % | format: bare number

These recorded examples may help you get a feel for the data.
compound	assay-result
CC(=O)Nn1c(C)nnc1-n1nc(C)cc1C	18.4
CC(=O)N1CCC(N(C(=O)Nc2ccc(C)c(C)c2)C2CCCC2)CC1	15
Cc1cccc(CCNC(=O)CCc2nc(-c3ccccc3F)no2)c1	2.35
COC(=O)c1ccccc1NC(=O)Cn1ccnc1	23.4
COc1ccc(OCC(=O)N2CCN(C(=O)COc3ccc(Br)cc3)CC2)cc1	20.9

Reported inhibition of COc1ccc(C2CC(C(F)(F)F)n3ncc(C(=O)NCc4cccnc4)c3N2)cc1OC (stereo unspecified) : 20.9

---

- subject-of-test: Alpha-2C adrenergic receptor (Homo sapiens)
- experimental-details: modulators of alpha2C/GIRK thallium flux, primary screen, cell-based, HEK293 alpha2C/GIRK1/2 (AID 624);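 further: slope of fluorescence ratio to pre-addition baseline per second over 15 to 24 s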
- test-parameters: thallium flux BTC fluorescence, at 10 µM, actives lie on both sides
Decision: slope beneath 0.006 gives Yes; slope meeting or exceeding 0.006 gives No.

// below: answered compounds
compound	qualitative-label
CCCN1CCN(CCCNC(=O)C2CCCN(c3nc4ccc(OCC)cc4s3)C2)CC1 (stereo unspecified)	Yes
COC(=O)C1=C(C)OC(N)=C(C#N)C1c1c(C)nn(-c2ccccc2)c1Cl (stereo unspecified)	No

INPUT: Criterion: slope strictly below 0.006. Is it met by O=C1c2ccccc2C(=O)N1CC(O)Cn1nnc2ccccc21 (stereo unspecified) ?
OUTPUT: Yes

INPUT: Criterion: slope strictly below 0.006. Is it met by O=C(COc1ccc(=O)n(-c2ccccc2)n1)Nc1ccccc1 ?
OUTPUT: No

INPUT: Criterion: slope strictly below 0.006. Is it met by COc1ccccc1N1CCN(CC(O)c2ccc3cc[nH]c3c2)CC1 (stereo unspecified) ?
OUTPUT: No

INPUT: Criterion: slope strictly below 0.006. Is it met by COc1ccc(OC)c(Nc2ncnc3c2cnn3-c2ccccc2)c1 ?
OUTPUT: Yes

INPUT: Criterion: slope strictly below 0.006. Is it met by O=C(Nc1cccc2ccccc12)c1cnccn1 ?
OUTPUT: No

---

- experimental-details: inhibitors of E-selectin induction by TNFa, primary screen, imaging, HUVEC, immunofluorescence, MLSMR starter and 10KST1 sets (AID 487);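 further: signal is fraction of cell area covered by stained E-selectin grains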
- test-parameters: HUVEC TNFalpha-induced E-selectin immunofluorescence imaging, at 2 µM; stronger effect = higher value
quantity-kind: inhibition (%)
# unit: % | format: bare number

These recorded examples may help you get a feel for the data.
compound	inhibition / %
Nc1cc(-c2ccc(Br)cc2)nn1S(=O)(=O)c1ccccc1	-57.9
CC(C)[C@H](NC(=O)OC(C)(C)C)c1nnc(SCC(=O)Nc2ccc(Br)cc2)o1	-13.2
Nc1ccc2c3c(cccc13)CC2	-74
CC(=O)N1CCN=C1SCc1ccc(Br)cc1	39.5
c1ccc(-n2ncc3c(N4CCCC4)ncnc32)cc1	12.6
CC(C)(C)C(=O)CNS(=O)(=O)c1ccc(S(=O)(=O)NC2CCCC2)cc1	-35.9

Reported inhibition of COCCN(C(=O)CCC(=O)Nc1ccccn1)C(C(=O)NC1CCCC1)c1ccc(OC)cc1 (stereo unspecified) : -44.5

Reported inhibition of COc1ccc(C2C=C(c3ccc(C)cc3)Nc3ncnn32)cc1 (stereo unspecified) : 22.6

Reported inhibition of COCCNC(=O)c1cc(-c2cccs2)on1 : -46.8

Reported inhibition of O=C(C1CCN(c2nnnn2-c2ccccc2)CC1)N1CCN(c2ccccc2)CC1 : -35.9

Reported inhibition of CCCN(CCC)S(=O)(=O)c1ccc(NS(C)(=O)=O)cc1 : -126
